Source of measurements: patent US9321764B2

Target: BRD4 (BDI_K57-E168) (Homo sapiens)
Construct: BD1: amino acids K57-E168
Test: TR-FRET bromodomain binding assay, first bromodomain of BRD4
Conditions: His-tagged BD1, 100 nM Alexa647 probe; TR-FRET protocol A-E given per row
The label is y for Ki below 20 nM and n for Ki equal to or exceeding 20 nM.

molecule	label
Cc1cnc(C(=O)Nc2ccc(Oc3ccc(F)cc3F)c(-c3cn(C)c4c(=O)[nH]ccc34)c2)cn1 [Example 151]	y
Cn1cc(-c2cc(CNCc3c[nH]cn3)ccc2Oc2ccc(F)cc2F)c2cc[nH]c(=O)c21 [Example 119]	n
Cn1cc(-c2cc(NS(=O)(=O)Cc3cc(F)ccc3Cl)ccc2Oc2ccc(F)cc2F)c2cc[nH]c(=O)c21 [Example 181]	n
Cn1cc(-c2cc(S(C)(=O)=O)ccc2Oc2ccc(F)cc2F)c2cc[nH]c(=O)c21 [Example 17]	n
Cn1cc(-c2cc(CNS(=O)(=O)c3cc(Cl)sc3Cl)ccc2Oc2ccc(F)cc2F)c2cc[nH]c(=O)c21 [Example 138]	n
CCS(=O)(=O)Nc1ccc(Oc2ccc(F)cc2F)c(-c2cn(C)c3c(=O)[nH]c(C(=O)NCC#N)cc23)c1 [Example 189]	y
Cn1cc(-c2cc(S(C)(=O)=O)ccc2Oc2ccc(F)cc2)c2cc[nH]c(=O)c21 [Example 61]	y

###

Tested on: breast cancer cell line MX-1
Assay: MX-1 cell line proliferation assay
Type: cell-based
Conditions: Homo sapiens, MX1, 72 h, MX-1 cells, 3-day proliferation assay, Cell Titer Glo; read-out: Cellular proliferation EC50
pEC50: −log10 of the molar value.

compound	target	censoring.sign	pEC50
Cn1cc(-c2cc(S(C)(=O)=O)ccc2NCc2ccc(C#N)cc2)c2cc[nH]c(=O)c21	breast cancer cell line MX-1	=	6.32
Cn1cc(-c2cc(CS(=O)(=O)c3ccccc3)ccc2Oc2ccc(F)cc2F)c2cc[nH]c(=O)c21	breast cancer cell line MX-1	=	7.24
Cn1cc(-c2cc(S(C)(=O)=O)ccc2OC2CCOC2)c2cc[nH]c(=O)c21 (stereo not drawn)	breast cancer cell line MX-1	=	6.42
Cn1cc(-c2cc(CS(C)(=O)=O)ccc2Nc2ccc(F)cc2F)c2cc[nH]c(=O)c21	breast cancer cell line MX-1	=	7.36
CCS(=O)(=O)Nc1ccc(O[C@H]2CC[C@@H](OC)CC2)c(-c2cn(C)c3c(=O)[nH]ccc23)c1	breast cancer cell line MX-1	=	6.89
CCS(=O)(=O)c1ccc(Oc2ccc(F)cc2F)c(-c2cn(C)c3c(=O)[nH]ccc23)c1	breast cancer cell line MX-1	=	7.28
Cc1cccnc1CNc1ccc(Oc2ccc(F)cc2F)c(-c2cn(C)c3c(=O)[nH]ccc23)c1	breast cancer cell line MX-1	=	6.88
Cn1cc(-c2cc(S(C)(=O)=O)ccc2Oc2ccc(F)c(F)c2)c2cc[nH]c(=O)c21	breast cancer cell line MX-1	=	6.75
Cn1cc(-c2cc(CNCc3c[nH]cn3)ccc2Oc2ccc(F)cc2F)c2cc[nH]c(=O)c21	breast cancer cell line MX-1	<	5.52
CCS(=O)(=O)Nc1ccc(Oc2ccc(F)cc2F)c(-c2cn(C)c3c(=O)[nH]c(C4CCN(S(=O)(=O)CC)CC4)cc23)c1	breast cancer cell line MX-1	=	7.87
CN(CC1CC1)c1ccc(S(C)(=O)=O)cc1-c1cn(C)c2c(=O)[nH]ccc12	breast cancer cell line MX-1	=	6.55
CCS(=O)(=O)Nc1ccc(O[C@H]2CC[C@H](OC)CC2)c(-c2cn(C)c3c(=O)[nH]ccc23)c1	breast cancer cell line MX-1	=	7.44
Cn1cc(-c2cc(NCc3ccccc3C#N)ccc2Oc2ccc(F)cc2F)c2cc[nH]c(=O)c21	breast cancer cell line MX-1	=	6.63
CN(C)S(=O)(=O)Cc1ccc(Oc2ccc(F)cc2F)c(-c2cn(C)c3c(=O)[nH]ccc23)c1	breast cancer cell line MX-1	=	8.30
Cn1cc(-c2cc(S(C)(=O)=O)ccc2OC2CCOCC2)c2cc[nH]c(=O)c21	breast cancer cell line MX-1	=	6.64

###

Consider the following compounds and their measured log10 Ki readings.
Target: BRD4 (BDII_E352-M457) (Homo sapiens)
Construct: proliferation; Protocol
Assay: TR-FRET bromodomain binding assay, second bromodomain of BRD4
Details: His-tagged BD2, 30 nM Alexa647 probe; TR-FRET protocol A-E given per row
measure.name: log10 Ki (log10 of the value in nM)

compound	target	measure.name	observed.value
CN(CC1CC1)c1ccc(S(C)(=O)=O)cc1-c1cn(C)c2c(=O)[nH]ccc12	BRD4 (BDII_E352-M457) (Homo sapiens)	log10 Ki	1.85
CCS(=O)(=O)Nc1ccc(Oc2ccc(F)cc2F)c(-c2cn(C)c3c(=O)[nH]c(C(=O)NCCN4CCCCC4)cc23)c1	BRD4 (BDII_E352-M457) (Homo sapiens)	log10 Ki	1.04
Cn1cc(-c2cc(S(C)(=O)=O)ccc2OC2CCOC2)c2cc[nH]c(=O)c21 (centres unmarked)	BRD4 (BDII_E352-M457) (Homo sapiens)	log10 Ki	2.08
Cn1cc(-c2cc(NS(C)(=O)=O)ccc2Oc2ccc(F)cc2F)c2cc[nH]c(=O)c21	BRD4 (BDII_E352-M457) (Homo sapiens)	log10 Ki	1.11
CCS(=O)(=O)c1ccc(Oc2ccncc2)c(-c2cn(C)c3c(=O)[nH]ccc23)c1	BRD4 (BDII_E352-M457) (Homo sapiens)	log10 Ki	2.59
CCS(=O)(=O)Nc1ccc(Oc2ccc(F)cc2F)c(-c2cn(C)c3c(=O)[nH]c(C(=O)NCCCO)cc23)c1	BRD4 (BDII_E352-M457) (Homo sapiens)	log10 Ki	0.59
Cn1cc(-c2cc(S(C)(=O)=O)ccc2OCCC2CC2)c2cc[nH]c(=O)c21	BRD4 (BDII_E352-M457) (Homo sapiens)	log10 Ki	1.04
Cn1cc(-c2cc(S(C)(=O)=O)ccc2OCC2CCC2)c2cc[nH]c(=O)c21	BRD4 (BDII_E352-M457) (Homo sapiens)	log10 Ki	1.72

###

Biological target: BRD4 (BDII_E352-M457) (Homo sapiens)
Construct: proliferation; Protocol
Assay: TR-FRET bromodomain binding assay, second bromodomain of BRD4
Conditions: His-tagged BD2, 30 nM Alexa647 probe; TR-FRET protocol A-E given per row

molecule	unit.annotation	Ki
Cn1cc(-c2cc(CS(C)(=O)=O)ccc2Oc2ccc(F)cc2F)c2cc(Cl)[nH]c(=O)c21	nM	9.5
CCS(=O)(=O)C(C)c1ccc(Oc2ccc(F)cc2F)c(-c2cn(C)c3c(=O)[nH]ccc23)c1 (single isomer, unassigned) [Example 57]	nM	37
CCS(=O)(=O)Nc1ccc(Oc2ccc(F)cc2F)c(-c2cn(C)c3c(=O)[nH]c(C(=O)NCC#N)cc23)c1	nM	8.82
CNS(=O)(=O)Cc1ccc(Oc2ccc(F)cc2F)c(-c2cn(C)c3c(=O)[nH]ccc23)c1	nM	4.8
COC1CCN(Cc2ccc(Oc3ccc(F)cc3F)c(-c3cn(C)c4c(=O)[nH]ccc34)c2)CC1	nM	1330
Cn1cc(-c2cc(CS(C)(=O)=O)ccc2Nc2ccccn2)c2cc[nH]c(=O)c21	nM	43.9
CCS(=O)(=O)C(C)c1ccc(Oc2ccc(F)cc2F)c(-c2cn(C)c3c(=O)[nH]ccc23)c1 (stereo not drawn) [Example 55]	nM	9.9
CCS(=O)(=O)c1ccc(Oc2cncnc2)c(-c2cn(C)c3c(=O)[nH]ccc23)c1	nM	739
CCS(=O)(=O)c1ccc(Oc2ccc(Cl)cc2)c(-c2cn(C)c3c(=O)[nH]ccc23)c1	nM	40
Cc1cccnc1CNc1ccc(Oc2ccc(F)cc2F)c(-c2cn(C)c3c(=O)[nH]ccc23)c1	nM	107
COc1ccccc1CC(=O)Nc1ccc(Oc2ccc(F)cc2F)c(-c2cn(C)c3c(=O)[nH]ccc23)c1	nM	54
CCS(=O)(=O)c1ccc(Oc2cnc(C)cc2C)c(-c2cn(C)c3c(=O)[nH]ccc23)c1	nM	42
CCS(=O)(=O)Nc1ccc(O[C@H]2CC[C@H](OC)CC2)c(-c2cn(C)c3c(=O)[nH]ccc23)c1	nM	57
Cn1cc(-c2cc(NC(=O)Cc3ccc4c(c3)CCCO4)ccc2Oc2ccc(F)cc2F)c2cc[nH]c(=O)c21	nM	183
Cc1ccc(CS(=O)(=O)NCc2ccc(Oc3ccc(F)cc3F)c(-c3cn(C)c4c(=O)[nH]ccc34)c2)cc1	nM	1240

###

System: breast cancer cell line MX-1
Assay: MX-1 cell line proliferation assay
Type: cell-based
Details: Homo sapiens, MX1, 72 h, MX-1 cells, 3-day proliferation assay, Cell Titer Glo; read-out: Cellular proliferation EC50
pEC50: −log10 of the molar value.

molecule	pEC50
Cn1cc(-c2cc(S(=O)(=O)N3CCCC3)ccc2O[C@H]2CC[C@H](N(C)C)CC2)c2cc[nH]c(=O)c21	7.14
Cn1cc(-c2cc(S(C)(=O)=O)ccc2OCC2CCOC2)c2cc[nH]c(=O)c21 (stereo not shown)	6.59
Cn1cc(-c2cc(S(C)(=O)=O)ccc2OCC2CCC(F)(F)CC2)c2cc[nH]c(=O)c21	6.39
Cc1ccc(CS(=O)(=O)NCc2ccc(Oc3ccc(F)cc3F)c(-c3cn(C)c4c(=O)[nH]ccc34)c2)cc1	6.18
